Kindly state MIC for each of the entries shown.
System: Staphylococcus aureus
Method Notes: Antibacterial activity against methicillin-resistant Staphylococcus aureus CCARM 3506 after 24 hrs by microtiter ELISA
Assay type: functional
Measurement Context: CCARM 3506, 24 h
Hi, when you answer, please include the unit after the number. Thanks!

INSERT INTO results (compound, recorded_result) VALUES
  ('NC1=NC(c2cn(-c3ccc([N+](=O)[O-])cc3[N+](=O)[O-])nc2-c2ccccc2Cl)N=C(N2CCOCC2)N1 (stereo not drawn)', '32 µg/mL'),
  ('CN(C)C1=NC(c2cn(-c3ccc([N+](=O)[O-])cc3)nc2-c2ccc(Cl)cc2Cl)N=C(N)N1 (stereo not drawn)', '2 µg/mL'),
  ('CN(C)C1=NC(c2cn(-c3ccccc3)nc2-c2ccc(Br)cc2)N=C(N)N1 (stereo not drawn)', '4 µg/mL'),
  ('NC1=NC(c2cn(-c3ccc([N+](=O)[O-])cc3)nc2-c2ccc(Cl)cc2Cl)N=C(NCCc2ccccc2)N1 (stereo not drawn)', '1 µg/mL'),
  ('NC1=NC(c2cn(-c3ccc([N+](=O)[O-])cc3[N+](=O)[O-])nc2-c2ccccc2F)N=C(N2CCOCC2)N1 (stereo not drawn)', '32 µg/mL'),
  ('Cc1ccc(-c2nn(-c3ccccc3)cc2C2N=C(N)NC(N(C)C)=N2)cc1 (stereo not drawn)', '32 µg/mL'),
  ('NC1=NC(c2cn(-c3ccccc3)nc2-c2ccc(Br)cc2)N=C(N2CCOCC2)N1 (stereo not drawn)', '4 µg/mL');

Qu. Endpoint output: MIC of COc1cccc(-c2nn(-c3ccc([N+](=O)[O-])cc3[N+](=O)[O-])cc2C2N=C(N)NC(N(C)C)=N2)c1 (stereo not drawn) . Value?
Ans. 32 µg/mL

The reported numbers originate from ChEMBL document CHEMBL4316612.
